molecular target: T1, human PILRA G78 extracellular domain (recombinant hPILRA ECD) (human, UniProt Q9UKJ1 20-197); assay: SPR, Biacore 8K; hPILRA ECD; antibody with wild-type Fc
T1 construct: also called hPILRA G78
T1 sequence (Q9UKJ1 20-197 R78G limits assumed): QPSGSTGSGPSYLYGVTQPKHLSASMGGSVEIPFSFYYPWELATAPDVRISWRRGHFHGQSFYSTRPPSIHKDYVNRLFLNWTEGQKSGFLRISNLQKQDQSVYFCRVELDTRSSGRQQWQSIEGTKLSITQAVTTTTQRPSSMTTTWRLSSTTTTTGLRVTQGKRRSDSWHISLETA
Property: pKd; scope: individual binders
Units for pKd: none; it is -log10 of a concentration expressed in mol/L.

A selection of reference data follows.
Anti-PILRA antibody clone 33 (antibody, V domains shown, Humanized) VH: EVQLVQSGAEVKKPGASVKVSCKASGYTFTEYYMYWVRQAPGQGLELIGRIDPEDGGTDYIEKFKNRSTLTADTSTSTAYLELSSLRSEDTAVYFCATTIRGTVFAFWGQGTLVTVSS VL: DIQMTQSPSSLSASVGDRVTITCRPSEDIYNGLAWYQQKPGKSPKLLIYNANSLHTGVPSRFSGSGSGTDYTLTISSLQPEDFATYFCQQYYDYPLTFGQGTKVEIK: 8.69
Anti-PILRA antibody clone 17 (antibody, V domains shown, Humanized) VH: EVQLVQSGAEVKKPGASVKVSCKASGYTFTEYYMYWVRQAPGQGLELIGRIDPEDGGTDYVEKFKNRVTLTADTSTSTAYLELSSLRSEDTAVYYCASTIRGTVFVYWGQGTLVTVSS VL: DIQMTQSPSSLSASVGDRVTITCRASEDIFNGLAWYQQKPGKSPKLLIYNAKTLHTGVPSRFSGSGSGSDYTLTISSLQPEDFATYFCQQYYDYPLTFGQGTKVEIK: 8.89

# context switch: different binder, same pKd
The measured pKd associated with Anti-PILRA antibody clone 25 (antibody, V domains shown, Humanized) VH: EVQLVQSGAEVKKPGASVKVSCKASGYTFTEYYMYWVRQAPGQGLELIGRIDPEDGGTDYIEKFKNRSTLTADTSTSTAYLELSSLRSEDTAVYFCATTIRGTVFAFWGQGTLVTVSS VL: DIQMTQSPSSLSASVGDRVTITCRPSEDIYNGLAWYQQKPGKAPKLLIYNANSLHTGVPSRFSGSGSGTDYTLTISSLQPEDFATYFCQQYYDYPLTFGQGTKVEIK reads 9.10
